Ref: patent US20230115274A1

# Target of assay: hSTING (Homo sapiens, UniProt Q86WV6, G230A/H232R/R293Q/R71H)
# Construct: host or cells: THP1-Dual KO-IFNAR2 cells
# Sequence (Q86WV6 whole entry R71H/G230A/H232R/R293Q): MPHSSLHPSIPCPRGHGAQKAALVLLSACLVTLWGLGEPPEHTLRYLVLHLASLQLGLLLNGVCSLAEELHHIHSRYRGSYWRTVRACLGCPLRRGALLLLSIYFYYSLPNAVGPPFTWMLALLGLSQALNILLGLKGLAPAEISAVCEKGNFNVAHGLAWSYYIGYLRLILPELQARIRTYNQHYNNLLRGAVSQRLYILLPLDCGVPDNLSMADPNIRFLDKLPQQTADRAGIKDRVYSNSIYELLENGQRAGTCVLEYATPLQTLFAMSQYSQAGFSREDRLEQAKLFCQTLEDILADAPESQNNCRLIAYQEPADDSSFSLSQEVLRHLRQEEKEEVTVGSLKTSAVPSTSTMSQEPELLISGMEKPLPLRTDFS
# Assay explanation: STING reporter assay (luciferase) in THP1-Dual KO-IFNAR2 cells stimulated with 2′3′cGAMP
# Format: cell-based
# Study conditions: 2′3′cGAMP 15 μM, 24 h, class symbols
Consider the following compounds; for each one, report its EC50.

Using the record for "Cc1cc(NC(=O)Nc2c[nH]c3ncc(Cl)cc23)cnc1C1CCC(F)(F)CC1" , report its EC50.
1000 to 5000 nM

For the compound "O=C(Nc1cnc(C2CCC(F)(F)CC2)c(CO)c1)Nc1c[nH]c2ncc(F)cc12" , what EC50 is on record?
5000 to 100000 nM

I'd like to know its EC50. The compound in question is "O=C(Nc1cnc(Cl)c(C2CCC(F)(F)CC2)c1)Nc1c[nH]c2cccnc12"
5000 to 100000 nM

Can you share its EC50? I mean this compound: "Cc1cc(NC(=O)Nc2c[nH]c3ncc(F)cc23)cnc1N1CCC2(CC1)CC2"
40 to 200 nM

Look up EC50 for this compound: "N#Cc1cc(NC(=O)Nc2c[nH]c3ncc(F)cc23)cnc1N1CCC(F)(F)CC1"
200 to 1000 nM

Find the recorded EC50 belonging to "COc1cc(NC(=O)Nc2c[nH]c3ncc(F)cc23)ncc1C1CCC(F)(F)CC1" and report it.
200 to 1000 nM

Fill in the blank: the reported EC50 of "COc1cnc2[nH]cc(NC(=O)Nc3cnc(N4CCC(F)(F)CC4)c(Cl)c3)c2c1" is ____.
200 to 1000 nM

// returns reported EC50 for input "O=C(Nc1ccc(C2CC(F)(F)C2)c(F)c1)Nc1c[nH]c2ncc(F)cc12"
200 to 1000 nM

----------
Please provide measured EC50 for the entries that follow.
# Target of assay: hSTING (Homo sapiens, UniProt Q86WV6, G230A/H232R/R293Q/R71H)
# Construct: host or cells: THP1-Dual KO-IFNAR2 cells
# Assay explanation: STING reporter assay (luciferase) in THP1-Dual KO-IFNAR2 cells stimulated with 2′3′cGAMP
# Assay type: cell-based
# Study conditions: 2′3′cGAMP 15 μM, 24 h, class symbols

Using the record for "O=C(Nc1ccc(C2CCC(F)(F)CC2)nc1)Nc1c[nH]c2ncc(F)cc12" , report its EC50.
200 to 1000 nM

I would be grateful if you could share the reported EC50 for "COCCOc1ccc2[nH]cc(NC(=O)Nc3cnc(N4CCC(F)(F)CC4)c(Cl)c3)c2n1" .
200 to 1000 nM

Any idea what its EC50 is? The compound is "O=C(Nc1cnc(N2CCC(F)(F)CC2)c(Cl)c1)Nc1c[nH]c2cccnc12"
200 to 1000 nM

State the recorded EC50 for this entry: "O=C(Nc1ccc(C2CCC(F)(F)CC2)nc1)Nc1c[nH]c2ncc(Cl)cc12"
200 to 1000 nM

Quick check: EC50 of "CCc1ccc2[nH]cc(NC(=O)Nc3cnc(N4CCC(F)(F)CC4)c(C)c3)c2n1" ?
1000 to 5000 nM

Param item = O=C(Nc1cnc(C2CCN(CC(F)(F)F)C2)c(Cl)c1)Nc1c[nH]c2cccnc12 (stereo not shown) ; retrieve measured EC50.
1000 to 5000 nM

Recorded EC50 of "COc1ccc2[nH]cc(NC(=O)Nc3cnc(C4CCC(F)(F)CC4)c(C#N)c3)c2n1" , please.
200 to 1000 nM

Form field: reported EC50 of "O=C(Nc1cnc(N2CCC(F)(F)CC2)cn1)Nc1c[nH]c2ncc(F)cc12"
200 to 1000 nM

Please report the recorded EC50 for "N#Cc1cc(NC(=O)Nc2c[nH]c3c(F)cncc23)ccc1C1CCC(F)(F)CC1" .
200 to 1000 nM

Data request, read-out EC50, for "N#Cc1cc(NC(=O)Nc2c[nH]c3ncc(F)cc23)ccc1C1CCC(F)(F)CC1"
40 to 200 nM

Need EC50 of CC(C)(C)OC(=O)N1CCCC(n2cc(NC(=O)Nc3ccc(C4CCC(F)(F)CC4)nc3)c3cc(F)cnc32)C1 (stereo not shown) , thanks.
5000 to 100000 nM

EC50 for "COc1cnc2[nH]cc(NC(=O)Nc3cnc(N4CCC(F)(F)CC4)c(F)c3)c2c1" ?
200 to 1000 nM

Please report the recorded EC50 for "O=C(Nc1ccc(NC2CCC2)nc1)Nc1c[nH]c2ncc(F)cc12" .
1000 to 5000 nM

Give the measured EC50 of "COc1cc2c(NC(=O)Nc3ccc(C4CCC(F)(F)CC4)c(C#N)c3)c[nH]c2cn1" .
200 to 1000 nM

What EC50 value was documented for this compound, "O=C(Nc1cnc(N2CCC(F)(F)CC2)c(Cl)c1)Nc1c[nH]c2ccc(Cl)nc12" ?
200 to 1000 nM

Given "CC(=O)n1cc(NC(=O)Nc2ccc(C3CCC(F)(F)CC3)nc2)c2cc(F)cnc21" , state its recorded EC50.
200 to 1000 nM
